Provide the recorded pEC50 for the entries that follow.
Biological target: hCX3CR1 (Homo sapiens, UniProt P49238)
Sequence (P49238 whole entry): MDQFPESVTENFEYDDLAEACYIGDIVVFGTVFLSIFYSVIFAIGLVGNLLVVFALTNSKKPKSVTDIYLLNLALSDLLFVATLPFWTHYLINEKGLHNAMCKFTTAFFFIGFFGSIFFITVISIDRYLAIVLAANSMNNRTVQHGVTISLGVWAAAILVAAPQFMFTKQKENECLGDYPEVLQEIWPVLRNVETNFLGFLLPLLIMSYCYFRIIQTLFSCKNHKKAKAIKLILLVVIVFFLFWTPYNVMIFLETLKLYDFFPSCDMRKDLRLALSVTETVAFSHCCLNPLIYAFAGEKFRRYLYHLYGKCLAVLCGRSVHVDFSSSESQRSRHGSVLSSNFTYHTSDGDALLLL
Assay: Ga16 assay, CX3CR1 agonism, Ca2+ sensitive photo-protein readout (FLIPRTETRA)
Type: cell-based
Design: expressed in transfected cells; stably expresses a Ca2+ sensitive photo-protein
Details: human CX3CR1 cell line
Convention used: pEC50 is expressed as -log10 of the molar concentration.

The value of pEC50 measured for the molecule CN(C)CC(C)(C)CNC(=O)c1cc2c(s1)CCCCCC2 turned out to be 4.77

The value of pEC50 measured for the molecule O=C(NCC1(CN2C[C@H]3CCO[C@@H]3C2)CCCC1)c1cc2c(s1)CCCCCC2 turned out to be 4.74

The value of pEC50 measured for the molecule CCC(CC)(CNC(=O)c1cc2c(s1)CCCCCC2)CN(C)C turned out to be 4.79

The value of pEC50 measured for the molecule O=C(NCC1(CN2CCCC2)CCC1)c1cc2c(s1)CCCCCC2 turned out to be 5.22

The value of pEC50 measured for the molecule CC(C)OC1CCCN(CC2(CNC(=O)c3cc4c(s3)CCCCCC4)CCC2)C1 (stereo not drawn) turned out to be 4.80

The value of pEC50 measured for the molecule CN(C)CC1(CNC(=O)c2cc3c(s2)CCCCCC3)CCC1 turned out to be 4.98

The value of pEC50 measured for the molecule CC(C)(CNC(=O)c1cc2c(s1)CCCCCC2)CN1CCC(O)C(C)(C)C1 (stereo not drawn) turned out to be 4.71

The value of pEC50 measured for the molecule COC1CCCN(CC(C)(C)CNC(=O)c2cc3c(s2)CCCCCC3)C1 (stereo not drawn) turned out to be 4.79

The value of pEC50 measured for the molecule O=C(NCC1(CN2CCCC2)CC(O)C1)c1cc2c(s1)CCCCCC2 (stereo not drawn) turned out to be 5.04

The value of pEC50 measured for the molecule O=C(NCC1(CN2CCCC2)Cc2ccccc2C1)c1cc2c(s1)CCCCCC2 turned out to be 4.69

The value of pEC50 measured for the molecule CN(CCO)CC1(CNC(=O)c2cc3c(s2)CCCCC3)CCCC1 turned out to be 4.86

The value of pEC50 measured for the molecule O=C(NCC1(CN2CCCC2)CC(F)(F)C1)c1cc2c(s1)CCCCCC2 turned out to be 4.82

The value of pEC50 measured for the molecule CC(C)(CNC(=O)c1cc2c(s1)CCCCCC2)CN1CCCCC1 turned out to be 4.91

The value of pEC50 measured for the molecule O=C(NCC1(CN2CCC(O)CC2)CCCC1)c1cc2c(s1)CCCCCC2 turned out to be 5.09

The value of pEC50 measured for the molecule CC1CCCC1(CNC(=O)c1cc2c(s1)CCCCCC2)CN(C)C (single isomer, unassigned) [Example 61] turned out to be 4.87

The value of pEC50 measured for the molecule CN(C)CC1(CNC(=O)c2cc3c(s2)CCCCCC3)CCOC1 (stereo not drawn) turned out to be 5.00

The value of pEC50 measured for the molecule CN(C)CC1(CNC(=O)c2cc3c(s2)CCCCCC3)Cc2ccccc2C1 turned out to be 4.69

The value of pEC50 measured for the molecule CCCN(C)CC1(CNC(=O)c2cc3c(s2)CCCCCC3)CCCC1 turned out to be 4.82

Data origin: patent US12258337B2
